Entries below carry reported MIC on Stenotrophomonas maltophila.
Answers are plain numbers, in µg/mL.

Guide cases for MIC, answers given:
**Query** Please give the measured MIC for this compound: C[C@@H](O)[C@H]1C(=O)N2C(C(=O)O)=C(S[C@@H]3CN[C@H](C(=O)N(C)C)C3)[C@H](C)[C@H]12
**Result** 2

**Query** Consider the compound shown here: CC(C)(O/N=C(\C(=O)N[C@@H]1C(=O)N2C(C(=O)[O-])=C(C[n+]3ccccc3)CS[C@H]12)c1csc(N)n1)C(=O)O What is its recorded MIC?
**Result** 4

**Query** Looking for the measured MIC of NCC[C@H](O)C(=O)N[C@@H]1C[C@H](N)[C@@H](O[C@H]2O[C@H](CN)[C@@H](O)[C@H](O)[C@H]2O)[C@H](O)[C@H]1O[C@H]1O[C@H](CO)[C@@H](O)[C@H](N)[C@H]1O , can you help?
**Result** 2

Value sought for every listed compound: MIC.
1. C[C@H]1c2cccc(O)c2C(=O)C2=C(O)[C@]3(O)C(=O)C(C(N)=O)=C(O)[C@@H](N(C)C)[C@@H]3[C@@H](O)[C@@H]21
2. C[C@H]1COc2c(N3CCN(C)CC3)c(F)cc3c(=O)c(C(=O)O)cn1c23

**Result**
1. 0.5
2. 0.5

* * *

System: Klebsiella pneumoniae
VALUE KIND: MIC (µg/mL)
Give bare numbers, in µg/mL.

**Query** Would you kindly share the measured MIC for C[C@@H](O)[C@H]1C(=O)N2C(C(=O)O)=C(S[C@@H]3CN[C@H](C(=O)N(C)C)C3)[C@H](C)[C@H]12 ?
**Result** 0.03

**Query** Returns the measured MIC for the input molecule. Input: C[C@H]1c2cccc(O)c2C(=O)C2=C(O)[C@]3(O)C(=O)C(C(N)=O)=C(O)[C@@H](N(C)C)[C@@H]3[C@@H](O)[C@@H]21
**Result** 1

**Query** Need MIC of C[C@H]1COc2c(N3CCN(C)CC3)c(F)cc3c(=O)c(C(=O)O)cn1c23 , thanks.
**Result** 0.03

**Query** Recorded MIC of CC(C)(O/N=C(\C(=O)N[C@@H]1C(=O)N2C(C(=O)[O-])=C(C[n+]3ccccc3)CS[C@H]12)c1csc(N)n1)C(=O)O , please.
**Result** 0.5

**Query** # get_value(readout='MIC', item= CC1=C(C(=O)O)N2C(=O)[C@@H](NC(=O)[C@H](N)c3ccccc3)[C@H]2SC1 )
**Result** 4

// next entry
**Query** Look up MIC: NCC[C@H](O)C(=O)N[C@@H]1C[C@H](N)[C@@H](O[C@H]2O[C@H](CN)[C@@H](O)[C@H](O)[C@H]2O)[C@H](O)[C@H]1O[C@H]1O[C@H](CO)[C@@H](O)[C@H](N)[C@H]1O
**Result** 0.5
